# test_name: Plasma pharmacokinetics after oral multi-dose anatabine polacrilex
# Assay type: in vivo, Sprague-Dawley rats
# cond: both sexes, Sprague-Dawley, rat, plasma, oral, 0.2 mg/kg BW, Avg. Conc. of anatabine in plasma, Male and Female, dose group 0.2, combined male and female, 475 min
value_kind: concentration at 475 min (ng/mL)
Report the value in ng/mL with no unit label.

Ask: What value of concentration at 475 min has been reported for the following compound? C1=CCC(c2cccnc2)NC1 (racemic) [Anatabine, 1,2,3,6-tetrahydro-[2,3′]bipyridinyl]
Reply: 11

---

# test_name: Plasma toxicokinetics after single i.v. bolus
# Format: in vivo, Sprague-Dawley rats
# cond: Sprague-Dawley, rat, plasma, intravenous, 1 mg/kg, Concentration of anatabine in rat plasma, Anatabine 1.0 mg/kg, rat plasma, 1 hr, rats of group 5
value_kind: concentration at 1 h (ng/mL)
Report as a plain number; the unit ng/mL is understood.

Ask: Which concentration at 1 h value belongs to C1=CCC(c2cccnc2)NC1 (racemic) [Anatabine, 1,2,3,6-tetrahydro-[2,3′]bipyridinyl] ?
Reply: 257

---

# test_name: Plasma pharmacokinetics after oral multi-dose anatabine polacrilex
# Assay type: in vivo, Sprague-Dawley rats
# cond: female, Sprague-Dawley, rat, plasma, oral, 0.2 mg/kg, Anatabine Concentration in rat plasma, 540 min, individual animals 2A-2D
value_kind: concentration at 540 min (ng/mL)
Your answer should be a plain number; it is taken to be in ng/mL.

Ask: Using the record for C1=CCC(c2cccnc2)NC1 (racemic) [Anatabine, 1,2,3,6-tetrahydro-[2,3′]bipyridinyl] , report its concentration at 540 min.
Reply: 24

---

# test_name: Concentration in brain extracts after single i.v. bolus
# Assay type: in vivo, Sprague-Dawley rats
# cond: female, Sprague-Dawley, rat, brain, intravenous, 1 mg/kg, anatabine 1.0 mg/kg i.v., 0.5 hr, Female; read-out: Mean concentration in rat brain extracts
value_kind: concentration at 0.5 h (ng/g)
Please state the figure in ng/g; there is no need to write the unit.

Ask: If you can, please state the reported concentration at 0.5 h value of C1=CCC(c2cccnc2)NC1 (racemic) [Anatabine, 1,2,3,6-tetrahydro-[2,3′]bipyridinyl] .
Reply: 346

---

# test_name: Plasma pharmacokinetics after oral multi-dose anatabine polacrilex
# Type: in vivo, Sprague-Dawley rats
# cond: both sexes, Sprague-Dawley, rat, plasma, oral, 0.2 mg/kg BW, Avg. Conc. of anatabine in plasma, Male and Female, dose group 0.2, combined male and female, 300 min
value_kind: concentration at 300 min (ng/mL)
Record the value in ng/mL, omitting the unit from your answer.

Ask: What value of concentration at 300 min has been recorded for this entry: C1=CCC(c2cccnc2)NC1 (racemic) [Anatabine, 1,2,3,6-tetrahydro-[2,3′]bipyridinyl]
Reply: 27

---

# test_name: Plasma toxicokinetics after single i.v. bolus
# Assay type: in vivo, Sprague-Dawley rats
# cond: Sprague-Dawley, rat, plasma, intravenous, 1 mg/kg, Concentration of anatabine in rat plasma, Anatabine 1.0 mg/kg, rat plasma, 8 hr, rats of group 6
value_kind: concentration at 8 h (ng/mL)
All answers are understood in ng/mL, so give the number only.

Ask: Field request: concentration at 8 h | item: C1=CCC(c2cccnc2)NC1 (racemic) [Anatabine, 1,2,3,6-tetrahydro-[2,3′]bipyridinyl]
Reply: 19

---

# test_name: Plasma pharmacokinetics after oral multi-dose anatabine polacrilex
# Type: in vivo, Sprague-Dawley rats
# cond: both sexes, Sprague-Dawley, rat, plasma, po, 0.6 mg/kg, 0.6 mg/kg BW total p.o., after final dose, males and females combined; read-out: t1/2, terminal (converted)
value_kind: half-life

Ask: I'd like to know its half-life. The compound in question is C1=CCC(c2cccnc2)NC1 (racemic) [Anatabine, 1,2,3,6-tetrahydro-[2,3′]bipyridinyl]
Reply: 1.79 h

---

# test_name: Plasma toxicokinetics after single i.v. bolus
# Type: in vivo, Sprague-Dawley rats
# cond: female, Sprague-Dawley, rat, plasma, intravenous, 0.1 mg/kg, Anatabine 0.1 mg/kg; female; 6 hr (2nd 6 hr line, N=1); read-out: Avg. Conc. rat plasma
value_kind: concentration at 6 h (ng/mL)
Could you give me the number in ng/mL? Just the number is fine.

Ask: Recorded concentration at 6 h of C1=CCC(c2cccnc2)NC1 (racemic) [Anatabine, 1,2,3,6-tetrahydro-[2,3′]bipyridinyl] , please.
Reply: 3

---

# test_name: Plasma pharmacokinetics after oral multi-dose anatabine polacrilex
# Type: in vivo, Sprague-Dawley rats
# cond: both sexes, Sprague-Dawley, rat, plasma, po, 6 mg/kg, male and female combined, mean; read-out: t1/2,0→4 (converted)
value_kind: half-life (h)
The reply should contain only the number, in h.

Ask: half-life lookup needed for C1=CCC(c2cccnc2)NC1 (racemic) [Anatabine, 1,2,3,6-tetrahydro-[2,3′]bipyridinyl] , thanks.
Reply: 1.79

---

# test_name: Plasma pharmacokinetics after oral multi-dose anatabine polacrilex
# Assay type: in vivo, Sprague-Dawley rats
# cond: both sexes, Sprague-Dawley, rat, plasma, oral, 2 mg/kg BW, Avg. Conc. of anatabine in plasma, Male and Female, dose group 2, combined male and female, 600 min
value_kind: concentration at 600 min (ng/mL)
Numeric only. Scale: ng/mL

Ask: Look up concentration at 600 min: C1=CCC(c2cccnc2)NC1 (racemic) [Anatabine, 1,2,3,6-tetrahydro-[2,3′]bipyridinyl]
Reply: 237

---

# test_name: Plasma pharmacokinetics after oral multi-dose anatabine polacrilex
# Format: in vivo, Sprague-Dawley rats
# cond: both sexes, Sprague-Dawley, rat, plasma, oral, 0.2 mg/kg BW, Avg. Conc. of anatabine in plasma, Male and Female, dose group 0.2, combined male and female, 600 min
# Experimental: This study consisted of two groups of 8 animals each, 4 males and 4 females. Two formulations were prepared; one for each of the two treatment groups. […] Sample preparation. […] The amount of the test agent in the supernatant was determined by LC/MS/MS. Analysis. Samples were analyzed by LC/MS/MS using an Agilent 6410 mass spectrometer coupled with an Agilent 1200 high pressure liquid chromatography (HPLC) and a CTC PAL chilled autosampler, all controlled by MassHunter software (Agilent). […]
value_kind: concentration at 600 min (ng/mL)
Please reply with the bare figure in ng/mL and do not write the unit itself.

Ask: # concentration at 600 min lookup, item C1=CCC(c2cccnc2)NC1 (racemic) [Anatabine, 1,2,3,6-tetrahydro-[2,3′]bipyridinyl]
Reply: 26

---

# test_name: Plasma pharmacokinetics after oral multi-dose anatabine polacrilex
# Assay type: in vivo, Sprague-Dawley rats
# cond: both sexes, Sprague-Dawley, rat, plasma, po; 0.6 mg/kg BW total p.o., males and females combined
value_kind: AUC(0-inf)

Ask: Give the measured AUC(0-inf) of C1=CCC(c2cccnc2)NC1 (racemic) [Anatabine, 1,2,3,6-tetrahydro-[2,3′]bipyridinyl] .
Reply: 285 ng·h/mL

---

# test_name: Plasma pharmacokinetics after oral multi-dose anatabine polacrilex
# Type: in vivo, Sprague-Dawley rats
# cond: female, Sprague-Dawley, rat, plasma, oral, 0.2 mg/kg BW, Avg. Conc. of anatabine in plasma, dose group 0.2, female, 30 min
value_kind: concentration at 30 min (ng/mL)
Return type: number; implicit unit ng/mL.

Ask: Entry under review: C1=CCC(c2cccnc2)NC1 (racemic) [Anatabine, 1,2,3,6-tetrahydro-[2,3′]bipyridinyl] . Reported concentration at 30 min?
Reply: 37

---

# test_name: Plasma toxicokinetics after single i.v. bolus
# Format: in vivo, Sprague-Dawley rats
# cond: female, Sprague-Dawley, rat, plasma, intravenous, 1 mg/kg, Anatabine 1.0 mg/kg; female; 4 hr; read-out: Avg. Conc. rat plasma
value_kind: concentration at 4 h (ng/mL)
Respond numerically; units are ng/mL and should not be typed.

Ask: Looking for the measured concentration at 4 h of C1=CCC(c2cccnc2)NC1 (racemic) [Anatabine, 1,2,3,6-tetrahydro-[2,3′]bipyridinyl] , can you help?
Reply: 60.7

---

# test_name: Plasma toxicokinetics after single i.v. bolus
# Format: in vivo, Sprague-Dawley rats
# cond: female, Sprague-Dawley, rat, plasma, intravenous, 1 mg/kg, Anatabine 1.0 mg/kg; female; 0.5 hr (2nd 0.5 hr line); read-out: Avg. Conc. rat plasma
value_kind: concentration at 0.5 h (ng/mL)
Answer in ng/mL, number only, no unit symbol.

Ask: Entry C1=CCC(c2cccnc2)NC1 (racemic) [Anatabine, 1,2,3,6-tetrahydro-[2,3′]bipyridinyl] : reported concentration at 0.5 h = ?
Reply: 368

---

# test_name: Plasma pharmacokinetics after oral multi-dose anatabine polacrilex
# Format: in vivo, Sprague-Dawley rats
# cond: both sexes, Sprague-Dawley, rat, plasma, po, all data combined (overall), mean; read-out: t1/2,0→4 (converted)
value_kind: half-life (h)
# output: bare number, implied unit h

Ask: If you can, please state the reported half-life value of C1=CCC(c2cccnc2)NC1 (racemic) [Anatabine, 1,2,3,6-tetrahydro-[2,3′]bipyridinyl] .
Reply: 1.93

---

# test_name: Plasma toxicokinetics after single i.v. bolus
# Type: in vivo, Sprague-Dawley rats
# cond: female, Sprague-Dawley, rat, plasma, iv, 1 mg/kg
value_kind: Vd (L/kg)
Entry rule: numbers only, all in L/kg.

Ask: Recorded Vd of C1=CCC(c2cccnc2)NC1 (racemic) [Anatabine, 1,2,3,6-tetrahydro-[2,3′]bipyridinyl] , please.
Reply: 3.16
